- Test system: Staphylococcus aureus
- experimental_details: Minimum inhibitory concentration in vitro against Staphylococcus aureus FDA 209P
- Format: functional
Define the label as Condition met when MIC is strictly less than 0.03 µg/mL and as Condition not met in all remaining cases.

Consider the following illustrative entries.
| molecule | label_class |
| --- | --- |
| CC1COc2c(N3CCN(C)CC3)c(F)cc3c(=O)c(C(=O)O)cn1c23 (configuration not stated) [OFLOXACIN] | Condition not met |
| COc1c(N2CC[C@@](CN)(CF)C2)c(F)cc2c(=O)c(C(=O)O)cn(C3CC3)c12 | Condition met |
| COc1c(N2CCOC(CN)C2)c(F)cc2c(=O)c(C(=O)O)cn(C3CC3)c12 (configuration not stated) | Condition met |
| O=C(O)c1cn(C2CC2)c2cc(N3CCNCC3)c(F)cc2c1=O [CIPROFLOXACIN] | Condition not met |
| NCC1CN(c2c(F)cc3c(=O)c(C(=O)O)cn(C4CC4)c3c2Cl)CCO1 (configuration not stated) | Condition met |

Below 0.03 µg/mL on MIC? Entry COc1c(N2CCC(O)(CN)C2)c(F)cc2c(=O)c(C(=O)O)cn(C3CC3)c12 (configuration not stated)
Condition not met

Below 0.03 µg/mL on MIC? Entry C[C@@H]1CN(c2c(F)c(N)c3c(=O)c(C(=O)O)cn(C4CC4)c3c2F)C[C@H](C)N1 [SPARFLOXACIN]
Condition not met
